Target: Gal4-HNF4α (human HNF4α LBD) (Homo sapiens)
Construct: uniprot entry: P41235-1, residues 142-377; expressed in transfected cells; host or cells: HEK293T
Sequence (P41235 142-377): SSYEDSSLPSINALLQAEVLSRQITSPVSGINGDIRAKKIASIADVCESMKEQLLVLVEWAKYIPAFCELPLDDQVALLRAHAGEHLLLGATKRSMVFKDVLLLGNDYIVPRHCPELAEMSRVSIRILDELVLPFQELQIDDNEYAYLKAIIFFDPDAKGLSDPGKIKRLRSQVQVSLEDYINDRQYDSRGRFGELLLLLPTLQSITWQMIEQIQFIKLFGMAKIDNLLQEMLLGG
Assay: Hybrid Gal4-HNF4α reporter gene assay in transiently transfected HEK293T cells
Format: cell-based
Conditions: Table S1, primary screening, 50 µM
Recorded HNF4a-screening_activity_(mean_of_n=2) by entry
measure.name: HNF4a-screening_activity_(mean_of_n=2)

molecule: Cc1c[nH]nc1C [Prestw-Frag-1408, Cc1c[nH]nc1C]
measure.name: HNF4a-screening_activity_(mean_of_n=2)
endpoint.result: 1.108
--
molecule: CC(=O)C1CCNCC1 [Prestw-Frag-3756, CC(=O)C1CCNCC1]
measure.name: HNF4a-screening_activity_(mean_of_n=2)
endpoint.result: 0.9377
--
molecule: CCOc1ccccn1 [Prestw-Frag-2477, CCOc1ccccn1]
measure.name: HNF4a-screening_activity_(mean_of_n=2)
endpoint.result: 1.372
--
molecule: COc1cc(C)cc(C)c1C [Prestw-Frag-1506, COc1cc(C)cc(C)c1C]
measure.name: HNF4a-screening_activity_(mean_of_n=2)
endpoint.result: 1.143
--
molecule: Cc1cc(C(C)(C)C)cc(C)c1CC1=NCCN1 [Prestw-Frag-1575, Cc1cc(cc(C)c1CC1=NCCN1)C(C)(C)C]
measure.name: HNF4a-screening_activity_(mean_of_n=2)
endpoint.result: 1.056
--
molecule: COc1ccc2ccncc2c1 [Prestw-Frag-1133, COc1ccc2ccncc2c1]
measure.name: HNF4a-screening_activity_(mean_of_n=2)
endpoint.result: 1.332
--
molecule: NNC(=O)c1ccncc1 [Prestw-Frag-1419, NNC(=O)c1ccncc1]
measure.name: HNF4a-screening_activity_(mean_of_n=2)
endpoint.result: 0.9909
--
molecule: O=c1cc(O)c2ccccc2o1 [Prestw-Frag-1131, Oc1cc(=O)oc2ccccc12]
measure.name: HNF4a-screening_activity_(mean_of_n=2)
endpoint.result: 1.185
--
molecule: c1cc(N2CCNCC2)ncn1 [Prestw-Frag-3729, C1CN(CCN1)c1ccncn1]
measure.name: HNF4a-screening_activity_(mean_of_n=2)
endpoint.result: 1.017

###

Recorded HNF4a-screening_activity_(mean_of_n=2) by entry
Target: Gal4-HNF4α (human HNF4α LBD) (Homo sapiens, UniProt P41235)
Construct: uniprot entry: P41235-1, residues 142-377; expressed in transfected cells; host or cells: HEK293T
Sequence (P41235 142-377): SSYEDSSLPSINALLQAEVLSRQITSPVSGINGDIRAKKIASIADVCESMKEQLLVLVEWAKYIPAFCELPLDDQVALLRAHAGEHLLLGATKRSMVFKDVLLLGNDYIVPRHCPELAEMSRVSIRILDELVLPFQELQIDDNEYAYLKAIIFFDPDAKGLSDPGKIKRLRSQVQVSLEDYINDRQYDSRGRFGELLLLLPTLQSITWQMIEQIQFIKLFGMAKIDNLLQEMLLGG
Experiment: Hybrid Gal4-HNF4α reporter gene assay in transiently transfected HEK293T cells
Assay type: cell-based
Conditions: Table S1, primary screening, 50 µM
measure.name: HNF4a-screening_activity_(mean_of_n=2)

compound: c1ccc(-n2cccn2)cc1
measure.name: HNF4a-screening_activity_(mean_of_n=2)
endpoint.result: 1.212

compound: CC(C)NCC(O)c1ccccc1 (centres unmarked)
measure.name: HNF4a-screening_activity_(mean_of_n=2)
endpoint.result: 1.078

compound: O=C(O)c1cccnc1Nc1cccc(Cl)c1
measure.name: HNF4a-screening_activity_(mean_of_n=2)
endpoint.result: 1.808

compound: O=C(O)CCC(=O)Nc1ccccc1
measure.name: HNF4a-screening_activity_(mean_of_n=2)
endpoint.result: 0.9265

compound: O=c1[nH]ncc2ccccc12 [Prestw-Frag-1560, O=c1[nH]ncc2ccccc12]
measure.name: HNF4a-screening_activity_(mean_of_n=2)
endpoint.result: 1.119

compound: O=C1COc2cc(O)ccc21
measure.name: HNF4a-screening_activity_(mean_of_n=2)
endpoint.result: 1.217

compound: COc1cc(C(N)=O)cc(OC)c1OC
measure.name: HNF4a-screening_activity_(mean_of_n=2)
endpoint.result: 0.8442

compound: CN1CCN(C(c2ccccc2)c2ccccc2)CC1
measure.name: HNF4a-screening_activity_(mean_of_n=2)
endpoint.result: 0.9831

###

Biological target: Gal4-HNF4α (human HNF4α LBD) (Homo sapiens)
Construct: uniprot entry: P41235-1, residues 142-377; expressed in transfected cells; host or cells: HEK293T
Assay: Hybrid Gal4-HNF4α reporter gene assay in transiently transfected HEK293T cells
Assay type: cell-based
Settings: Table S1, primary screening, 50 µM
Criterion: HNF4a-screening_activity_(mean_of_n=2) strictly less than 1. Met: true. Not met: false.

compound: NC(=O)COc1ccccc1 [Prestw-Frag-2578, NC(=O)COc1ccccc1]
test.system: Gal4-HNF4α (human HNF4α LBD) (Homo sapiens)
category: false

compound: Cc1cn(-c2cc(N)cc(C(F)(F)F)c2)cn1 [Prestw-Frag-3241, Cc1cn(cn1)-c1cc(N)cc(c1)C(F)(F)F]
test.system: Gal4-HNF4α (human HNF4α LBD) (Homo sapiens)
category: false

compound: O=C(c1ccccc1)N1CCNCC1 [Prestw-Frag-3677, O=C(N1CCNCC1)c1ccccc1]
test.system: Gal4-HNF4α (human HNF4α LBD) (Homo sapiens)
category: true

compound: CN1CCNCC1=O [Prestw-Frag-3460, CN1CCNCC1=O]
test.system: Gal4-HNF4α (human HNF4α LBD) (Homo sapiens)
category: false

compound: CCNC(=O)c1ccc(Cl)cc1 [Prestw-Frag-2818, CCNC(=O)c1ccc(Cl)cc1]
test.system: Gal4-HNF4α (human HNF4α LBD) (Homo sapiens)
category: true

compound: OC(c1ccccc1)c1ccccn1 (stereo not drawn) [Prestw-Frag-2238, OC(c1ccccc1)c1ccccn1]
test.system: Gal4-HNF4α (human HNF4α LBD) (Homo sapiens)
category: true

compound: OCc1cc2ccccc2[nH]1 [Prestw-Frag-1297, OCc1cc2ccccc2[nH]1]
test.system: Gal4-HNF4α (human HNF4α LBD) (Homo sapiens)
category: false

###

Target: Gal4-HNF4α (human HNF4α LBD) (Homo sapiens, UniProt P41235)
Construct: uniprot entry: P41235-1, residues 142-377; expressed in transfected cells; host or cells: HEK293T
Test: Hybrid Gal4-HNF4α reporter gene assay in transiently transfected HEK293T cells
Format: cell-based
Conditions: Table S1, primary screening, 50 µM
Recorded HNF4a-screening_activity_(mean_of_n=2) by entry
measure.name: HNF4a-screening_activity_(mean_of_n=2)

compound: c1cc2c(cc1CN1CCNCC1)OCO2
measure.name: HNF4a-screening_activity_(mean_of_n=2)
endpoint.result: 1.012

compound: CCc1cccc2c(CCO)c[nH]c12 [Prestw-Frag-1299, CCc1cccc2c(CCO)c[nH]c12]
measure.name: HNF4a-screening_activity_(mean_of_n=2)
endpoint.result: 1.255

compound: c1ccc(C2CCNCC2)cc1
measure.name: HNF4a-screening_activity_(mean_of_n=2)
endpoint.result: 0.9586

compound: O=C(O)c1ccccn1
measure.name: HNF4a-screening_activity_(mean_of_n=2)
endpoint.result: 0.9518

compound: CNC(=O)c1c(OC)ccc(Br)c1OC
measure.name: HNF4a-screening_activity_(mean_of_n=2)
endpoint.result: 1.072

compound: OCC1CCNCC1
measure.name: HNF4a-screening_activity_(mean_of_n=2)
endpoint.result: 0.8559

compound: Cc1c(N)cccc1C(F)(F)F
measure.name: HNF4a-screening_activity_(mean_of_n=2)
endpoint.result: 1.319

compound: Cc1n[nH]c(C)c1N [Prestw-Frag-3724, Cc1n[nH]c(C)c1N]
measure.name: HNF4a-screening_activity_(mean_of_n=2)
endpoint.result: 0.9198

compound: NC1=NCCN1
measure.name: HNF4a-screening_activity_(mean_of_n=2)
endpoint.result: 1.024

###

Biological target: Gal4-HNF4α (human HNF4α LBD) (Homo sapiens, UniProt P41235)
Construct: uniprot entry: P41235-1, residues 142-377; expressed in transfected cells; host or cells: HEK293T
Assay: Hybrid Gal4-HNF4α reporter gene assay in transiently transfected HEK293T cells
Type: cell-based
Details: Table S1, primary screening, 50 µM
Recorded HNF4a-screening_activity_(mean_of_n=2) by entry

compound: Cn1c(=O)[nH]c2nc[nH]c2c1=O [Prestw-Frag-1138, Cn1c(=O)[nH]c2nc[nH]c2c1=O]
HNF4a-screening_activity_(mean_of_n=2): 0.9492
//
compound: Oc1ccc(-c2ccc(F)cc2F)cc1
HNF4a-screening_activity_(mean_of_n=2): 0.9944
//
compound: ClC1(Cl)CC1c1ccccc1 (centres unmarked)
HNF4a-screening_activity_(mean_of_n=2): 1.078
//
compound: NCC(CC(=O)O)c1ccccc1 (centres unmarked)
HNF4a-screening_activity_(mean_of_n=2): 0.6886
//
compound: COC(=O)CN1CCc2sccc2C1
HNF4a-screening_activity_(mean_of_n=2): 1.101
//
compound: Fc1cccnc1N1CCCC1
HNF4a-screening_activity_(mean_of_n=2): 1.041
//
compound: NC1CCc2[nH]c3ccccc3c2C1 (centres unmarked) [Prestw-Frag-3709, NC1CCc2[nH]c3ccccc3c2C1]
HNF4a-screening_activity_(mean_of_n=2): 1.209
//
compound: CC(=O)c1ccc2c(c1)OCO2
HNF4a-screening_activity_(mean_of_n=2): 0.9343
